tested on: Mus musculus; assay: Toxicity in mouse assessed as tail bleeding time at 0.50 mmol/kg, po administered 45 mins prior to tail transection measured every 30 secs (reference value: 119.8 +/- 8.4 sec); type: organism-based; conditions: in vivo
measurement.type: Time (s)

{"columns": ["smiles.notation", "recorded.result"],
 "data": [
  ["CC1(C)CC(n2cc(CNC(=O)[C@@H](Cc3ccccc3)NC(=O)[C@@H]3Cc4c([nH]c5ccccc45)CN3C(=O)[C@@H]3Cc4c([nH]c5ccccc45)CN3)nn2)CC(C)(C)N1[O]", 119.1],
  ["CC(C)C[C@@H](NC(=O)[C@@H]1Cc2c([nH]c3ccccc23)CN1C(=O)[C@@H]1Cc2c([nH]c3ccccc23)CN1)C(=O)NCc1cn(C2CC(C)(C)N([O])C(C)(C)C2)nn1", 120.7],
  ["CC1(C)CC(n2cc(CNC(=O)[C@H]3CCCN3C(=O)[C@@H]3Cc4c([nH]c5ccccc45)CN3C(=O)[C@@H]3Cc4c([nH]c5ccccc45)CN3)nn2)CC(C)(C)N1[O]", 119.5],
  ["CC1(C)CC(n2cc(CNC(=O)[C@@H](Cc3c[nH]cn3)NC(=O)[C@@H]3Cc4c([nH]c5ccccc45)CN3C(=O)[C@@H]3Cc4c([nH]c5ccccc45)CN3)nn2)CC(C)(C)N1[O]", 120.5],
  ["CC1(C)CC(n2cc(CNC(=O)[C@@H](Cc3c[nH]c4ccccc34)NC(=O)[C@@H]3Cc4c([nH]c5ccccc45)CN3C(=O)[C@@H]3Cc4c([nH]c5ccccc45)CN3)nn2)CC(C)(C)N1[O]", 120.3],
  ["CC1(C)CC(n2cc(CNC(=O)[C@@H](CC(N)=O)NC(=O)[C@@H]3Cc4c([nH]c5ccccc45)CN3C(=O)[C@@H]3Cc4c([nH]c5ccccc45)CN3)nn2)CC(C)(C)N1[O]", 118.4]
]}

---

Measured Time, listed per entry for reference.
test system: Mus musculus; assay: Toxicity in mouse assessed as tail bleeding time at 0.50 mmol/kg, po administered 60 mins prior to tail transection measured every 30 secs (reference value: 120.4 +/- 7.9 sec); assay type: organism-based; settings: in vivo
measurement.type: Time (s)

{"columns": ["smiles.notation", "recorded.result"],
 "data": [
  ["CC1(C)CC(n2cc(CNC(=O)[C@@H](Cc3ccccc3)NC(=O)[C@@H]3Cc4c([nH]c5ccccc45)CN3C(=O)[C@@H]3Cc4c([nH]c5ccccc45)CN3)nn2)CC(C)(C)N1[O]", 117.6],
  ["CC1(C)CC(n2cc(CNC(=O)[C@@H](Cc3c[nH]cn3)NC(=O)[C@@H]3Cc4c([nH]c5ccccc45)CN3C(=O)[C@@H]3Cc4c([nH]c5ccccc45)CN3)nn2)CC(C)(C)N1[O]", 119.5],
  ["CC(C)[C@@H](NC(=O)[C@@H]1Cc2c([nH]c3ccccc23)CN1C(=O)[C@@H]1Cc2c([nH]c3ccccc23)CN1)C(=O)NCc1cn(C2CC(C)(C)N([O])C(C)(C)C2)nn1", 120.4],
  ["CC1(C)CC(n2cc(CNC(=O)[C@@H](CC(N)=O)NC(=O)[C@@H]3Cc4c([nH]c5ccccc45)CN3C(=O)[C@@H]3Cc4c([nH]c5ccccc45)CN3)nn2)CC(C)(C)N1[O]", 119.5],
  ["CC1(C)CC(n2cc(CNC(=O)[C@H]3CCCN3C(=O)[C@@H]3Cc4c([nH]c5ccccc45)CN3C(=O)[C@@H]3Cc4c([nH]c5ccccc45)CN3)nn2)CC(C)(C)N1[O]", 121.4]
]}

Origin of values: ChEMBL document CHEMBL4028817
